# Target of assay: T1, human amylin-3(a) receptor (human, UniProt P30988 25-474; O60896 24-148)
# T1 sequence (looked up) 1: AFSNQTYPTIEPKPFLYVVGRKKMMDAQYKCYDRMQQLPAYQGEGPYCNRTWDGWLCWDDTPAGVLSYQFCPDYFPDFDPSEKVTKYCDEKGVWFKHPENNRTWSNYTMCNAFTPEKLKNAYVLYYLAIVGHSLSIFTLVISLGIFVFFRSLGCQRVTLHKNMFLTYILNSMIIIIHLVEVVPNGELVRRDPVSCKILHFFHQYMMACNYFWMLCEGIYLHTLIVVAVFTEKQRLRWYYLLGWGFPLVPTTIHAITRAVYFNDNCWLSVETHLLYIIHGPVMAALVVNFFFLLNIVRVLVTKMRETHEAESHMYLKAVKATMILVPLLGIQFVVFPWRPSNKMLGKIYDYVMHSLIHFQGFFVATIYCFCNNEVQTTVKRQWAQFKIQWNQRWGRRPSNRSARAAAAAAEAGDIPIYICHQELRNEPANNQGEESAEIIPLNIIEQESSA
# T1 sequence (looked up) 2: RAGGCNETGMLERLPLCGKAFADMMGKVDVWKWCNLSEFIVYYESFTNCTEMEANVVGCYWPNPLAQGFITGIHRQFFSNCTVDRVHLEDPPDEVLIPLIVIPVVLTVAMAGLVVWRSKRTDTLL
# Assay procedure: cell-based or functional assay
Numbered stars: 1 amine (or outer) side, 2 acyl side, 3 side chain; on linkers, the order of the positions; unused ones are H or OH. Square brackets hold non-standard residues; d marks the D form. Side chains are listed from the residue outwards. * marks the point of attachment. C18 diacid = O=C(O)CCCCCCCCCCCCCCCCC(=O)*; C16 diacid = O=C(O)CCCCCCCCCCCCCCC(=O)*; γGlu = O=C(O)[C@H](CCC(=O)[*:2])N[*:1]; AEEA = NCCOCCOCC(=O)O; Aib = CC(C)(N)C(=O)O
Measured quantity: hAMYR3 Potency, 1% HSA, EC50 [pM] (pM)

{"Binder": "Compound 74 (peptide) peptide: Y[Aib]EGTFTSDYSILLEEQAAREFIEWLLAGGPSGGEASHLSTAQTQRLSAELHK([AEEA-AEEA-γGlu-C18 diacid])LATLPRTETGSGSP-NH2", "Result number": 134}
{"Binder": "Compound 95 (peptide) peptide: Y[Aib]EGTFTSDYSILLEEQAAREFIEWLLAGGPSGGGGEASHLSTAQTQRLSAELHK([AEEA-AEEA-γGlu-C18 diacid])LATLPRTETGSGSP-NH2", "Result number": 233}
{"Binder": "Compound 61 (peptide) peptide: H[Aib]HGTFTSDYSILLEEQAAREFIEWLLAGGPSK([AEEA-AEEA-γGlu-C16 diacid])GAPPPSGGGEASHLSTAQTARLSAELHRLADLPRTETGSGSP-NH2", "Result number": 30.8}
{"Binder": "Compound 68 (peptide) peptide: Y[Aib]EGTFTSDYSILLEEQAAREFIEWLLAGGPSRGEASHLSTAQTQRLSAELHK([AEEA-AEEA-γGlu-C18 diacid])LATLPRTETGSGSP-NH2", "Result number": 230}
